Overview of reported Percentage inhibition of ligand binding, Adrenergic α2B (0.03 μM) across a group of compounds:
Biological target: human recombinant adrenergic α2B receptor (Homo sapiens, UniProt P18089)
Construct: expressed in transfected cells; host or cells: CHO-K1
Sequence (P18089 1-450): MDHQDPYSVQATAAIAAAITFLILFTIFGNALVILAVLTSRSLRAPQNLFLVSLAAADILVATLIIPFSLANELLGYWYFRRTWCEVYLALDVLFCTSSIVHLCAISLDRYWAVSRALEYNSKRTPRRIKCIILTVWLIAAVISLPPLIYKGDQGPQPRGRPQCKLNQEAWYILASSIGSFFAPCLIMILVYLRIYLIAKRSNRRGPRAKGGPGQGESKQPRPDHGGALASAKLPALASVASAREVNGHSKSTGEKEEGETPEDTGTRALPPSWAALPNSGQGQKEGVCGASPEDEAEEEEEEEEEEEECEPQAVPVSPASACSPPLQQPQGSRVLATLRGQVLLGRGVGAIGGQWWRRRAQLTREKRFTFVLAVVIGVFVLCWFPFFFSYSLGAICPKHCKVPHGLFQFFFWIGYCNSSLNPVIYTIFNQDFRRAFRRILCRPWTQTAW
Assay: Radioligand binding, adrenergic α2B ([3H]Rauwolscine)
Conditions: compound at 0.03 μM; [3H]Rauwolscine; repeat datapoints each shown; 0.03 µM
REPORTED PROPERTY: Percentage inhibition of ligand binding, Adrenergic α2B (0.03 μM) (%)

1. Cc1ccc2c(c1)c1c(n2CC(C)(O)c2cccnc2)CC(C)N(C)C1 (single isomer, unassigned) [II-146a]    102
2. Cc1cnc2c(c1)c1c(n2CC(C)(O)c2ccc(F)cc2)CCN2CCCC12 (single isomer, unassigned) [II-149b]    96
3. Cc1ccc2c(c1)c1c(n2CC(O)c2cnn(C)c2)CCN(C)C1 (single isomer, unassigned) [131b]    63
4. Cc1ccc2c(c1)c1c(n2CC(C)(O)c2cccnc2)CCN(C)CC1 (single isomer, unassigned) [II-135b]    105
5. Cc1ccc2c(c1)c1c(n2CC(C)(O)c2cccnc2)CCN(C)C1C (single isomer, unassigned) [II-152b]    61
6. Cc1ccc2c(c1)c1c(n2CC(OC(=O)N(C)C)c2ccncc2)CCN(C)C1 (single isomer, unassigned) [141a]    70
7. Cc1cnc2c(c1)c1c(n2CC(C)(O)c2ccc(F)cc2)CCN2CCCC12 (single isomer, unassigned) [II-149a]    104
8. CC1Cc2c(c3cc(Cl)ccc3n2CC(C)(O)c2cccnc2)CN1C (single isomer, unassigned) [II-147a]    102
9. Cc1cnc2c(c1)c1c(n2CC(C)(O)c2ccc(F)cc2)CCN2CCCC12 (single isomer, unassigned) [II-149c]    41

----------
Target: human recombinant adrenergic α2A receptor (Homo sapiens, UniProt P08913)
Construct: expressed in transfected cells; host or cells: insect Sf9 cells
Sequence (P08913 whole entry): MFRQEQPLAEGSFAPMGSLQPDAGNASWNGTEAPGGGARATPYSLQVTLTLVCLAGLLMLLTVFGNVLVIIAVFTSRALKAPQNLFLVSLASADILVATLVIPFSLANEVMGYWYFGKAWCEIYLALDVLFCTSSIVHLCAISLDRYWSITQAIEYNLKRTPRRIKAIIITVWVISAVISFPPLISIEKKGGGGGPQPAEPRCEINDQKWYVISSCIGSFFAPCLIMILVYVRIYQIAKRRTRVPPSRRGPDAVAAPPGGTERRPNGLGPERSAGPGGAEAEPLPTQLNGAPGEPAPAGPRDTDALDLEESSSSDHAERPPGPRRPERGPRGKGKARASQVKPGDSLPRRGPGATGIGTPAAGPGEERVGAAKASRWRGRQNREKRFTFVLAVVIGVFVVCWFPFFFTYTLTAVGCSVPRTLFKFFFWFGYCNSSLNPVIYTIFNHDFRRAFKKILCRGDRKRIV
Assay: Radioligand binding, adrenergic α2A ([3H]MK-912)
Conditions: compound at 0.1 μM; [3H]MK-912; repeat assays, each datapoint shown; read-out: Percentage inhibition of ligand binding, Adrenergic α2A
Experimental: To evaluate in radioligand binding assays the activity of compounds of the invention, human recombinant adrenergic α2A receptor expressed in insect Sf9 cells (Uhlen, S. et al, J. Pharmacol. Exp. Ther. 271:1558, 1994) in a modified Tris-HCl buffer (50 mM Tris-HCl, pH 7.4, 12.5 mM MgCl2, 2 mM EDTA) was used. […] Receptor proteins were filtered and washed, the filters were then counted to determine [^3H]MK-912 specifically bound. […]
Overview of reported inhibition at 0.1 µM across a group of compounds:
REPORTED PROPERTY: inhibition at 0.1 µM

1) Cc1ccc2c(c1)c1c(n2CC(C)(O)c2ccc(C)nc2)CCN(C)C1 (stereo not drawn) [compound 29]    10%
2) Cc1ccc2c(c1)c1c(n2CC(O)c2ccncc2)CCN(C)C1 (single isomer, unassigned) [3a]    16%
3) CN1CCc2c(c3cccc(Cl)c3n2CC(C)(O)c2ccncc2)C1 (stereo not drawn) [compound 32]    28%
4) Cc1ccc2c(c1)c1c(n2CC(C)(O)c2ccc[n+]([O-])c2)CCN(C)C1 (single isomer, unassigned) [56a]    11%
5) Cc1ccc2c(c1)c1c(n2CC(=O)c2cc[n+]([O-])cc2)CCN(C)C1 [compound 68]    1%
6) Cc1ccc2c(c1)c1c(n2CC(C)(O)c2ccc(C)nc2)CCN(C)C1 (single isomer, unassigned) [29a]    35%

----------
Molecular target: rat adrenergic α1B receptor (Rattus norvegicus)
Construct: rat adrenergic α1B receptor obtained from Wistar Rat liver; from tissue; host or cells: Wistar rat liver
Sequence (P15823 1-515): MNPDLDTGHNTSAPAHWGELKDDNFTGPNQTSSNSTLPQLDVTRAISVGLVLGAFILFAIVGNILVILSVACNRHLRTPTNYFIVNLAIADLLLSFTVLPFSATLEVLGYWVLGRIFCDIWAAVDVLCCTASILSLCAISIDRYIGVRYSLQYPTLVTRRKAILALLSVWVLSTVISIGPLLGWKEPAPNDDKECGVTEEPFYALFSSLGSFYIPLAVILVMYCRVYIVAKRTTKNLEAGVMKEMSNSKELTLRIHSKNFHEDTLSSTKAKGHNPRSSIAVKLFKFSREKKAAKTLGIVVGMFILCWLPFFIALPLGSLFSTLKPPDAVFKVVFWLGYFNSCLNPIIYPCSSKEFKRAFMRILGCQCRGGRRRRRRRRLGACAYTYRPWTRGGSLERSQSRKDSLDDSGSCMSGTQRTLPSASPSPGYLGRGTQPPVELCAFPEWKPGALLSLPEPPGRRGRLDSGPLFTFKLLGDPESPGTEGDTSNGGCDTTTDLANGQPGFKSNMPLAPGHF
Assay: Radioligand binding, adrenergic α1B ([3H]Prazosin)
Settings: read-out: Percentage inhibition of ligand binding, Adrenergic α1B (0.1 μM), compound at 0.1 μM; [3H]Prazosin; repeat datapoints each shown
Would you please tag the item t when its inhibition at 0.1 µM is 40% or above, and f when it is below?

1) C/C(=C/n1c2c(c3cc(C)ccc31)CCN(C)CC2)c1ccc(Cl)cc1Cl    t
2) Cc1ccc2c(c1)c1c(n2CC(CCN(C)C)c2ccncc2)CCN(C)C1 (centres unmarked)    f
3) Cc1ccc2c(c1)c1c(n2CC(C(N)=O)c2ccncc2)CCN(C)C1 (centres unmarked)    f
4) Cc1cnc2c(c1)c1c(n2CC(O)c2ccc(C(N)=O)nc2)CCN(C)C1 (centres unmarked)    t
5) Cc1ccc2c(c1)c1c(n2CC(C)(O)c2cccnc2)CCN2CCCC12 (single isomer, unassigned) [II-127a]    t
6) Cc1ccc2c(c1)c1c(n2CC(C)(O)c2ccc(C)nc2)CN(C)CC1 (centres unmarked) [196b]    f
7) Cc1ccc2c(c1)c1c(n2CC(C)(N=[N+]=[N-])c2cccnc2)CCN(C)C1 (centres unmarked)    f
8) C/C(=C\n1c2c(c3cc(Cl)ccc31)CCN(C)CC2)c1ccccc1F    t
9) C/C(=C\n1c2c(c3cc(C)ccc31)CCN(C)CC2)c1ccncc1    t
10) C/C(=C\n1c2c(c3cc(C)ccc31)C1CCC(C2)N1C)c1ccccc1F (centres unmarked)    t
11) Cc1ccc(C#Cn2c3c(c4cc(Cl)ccc42)C2CCC(C3)N2C)cn1 (centres unmarked)    t

----------
molecular target: human recombinant adrenergic α2B receptor (Homo sapiens, UniProt P18089); construct: expressed in transfected cells; host or cells: CHO-K1; test: Radioligand binding, adrenergic α2B ([3H]Rauwolscine); settings: compound at 0.03 μM; [3H]Rauwolscine; repeat assays, each datapoint shown; 0.03 µM
REPORTED PROPERTY: Percentage inhibition of ligand binding, Adrenergic α2B

1. Cc1ccc2c(c1)c1c(n2CC(O)c2ccncc2)CC2CCCN2C1 (single isomer, unassigned) [76b]    34%
2. CN1CCc2c(c3cc(Cl)ccc3n2CC(O)c2ccncc2)C1 (single isomer, unassigned) [4b]    46%
3. Cc1ccc2c(c1)c1c(n2CC(C)(O)c2cccnc2)CCNC1 (single isomer, unassigned) [24a]    63%
4. Cc1cnc2c(c1)c1c(n2CC(O)c2ccncc2)CCNC1 (single isomer, unassigned) [58b]    39%
5. Cc1ccc2c(c1)c1c(n2CC(O)c2ccncc2)CCN2CCCCC12 (single isomer, unassigned) [47b]    119%
6. Cc1ccc2c(c1)c1c(n2CC(OC(=O)C(C)C)c2ccncc2)CCN(C)C1 (single isomer, unassigned) [54b]    106%
7. CC(O)(Cn1c2c(c3cc(Cl)cnc31)CNCC2)c1ccncc1 (single isomer, unassigned) [12b]    21%
8. Cc1ccc2c(c1)c1c(n2CC(O)c2ccncc2)CC2CCCCN2C1 (racemic) [75d]    102%
9. CN1CCc2c(c3cc(C(C)(C)O)ccc3n2CC(O)c2ccncc2)C1 (single isomer, unassigned) [23a]    6%
10. Cc1ccc2c(c1)c1c(n2CC(O)c2ccncc2)C(C)N2CCC1C2 (single isomer, unassigned) [38a]    35%
11. CN1CCc2c(c3cccc(Cl)c3n2CC(O)c2ccncc2)C1 (single isomer, unassigned) [45a]    54%
12. Cc1ccc2c(c1)c1c(n2CC(C)(O)c2ccc(C)nc2)CCN(C)C1 (single isomer, unassigned) [29a]    100%
13. Cc1ccc2c(c1)c1c(n2CC(C)(O)c2cccnc2)CCNC1 (single isomer, unassigned) [24b]    29%
14. Cc1ccc2c(c1)c1c(n2CC(O)c2ccncc2)CC2CCCCN2C1 (racemic) [75a]    77%
